Biological target: T1, muTfR extracellular domain (ECD), His-tagged (mouse, UniProt Q62351 89-763)
T1 construct: extracellular domain; Bought protein (Sino Biological); also called muTfR-His; muTfR ECD
T1 sequence (Q62351 89-763): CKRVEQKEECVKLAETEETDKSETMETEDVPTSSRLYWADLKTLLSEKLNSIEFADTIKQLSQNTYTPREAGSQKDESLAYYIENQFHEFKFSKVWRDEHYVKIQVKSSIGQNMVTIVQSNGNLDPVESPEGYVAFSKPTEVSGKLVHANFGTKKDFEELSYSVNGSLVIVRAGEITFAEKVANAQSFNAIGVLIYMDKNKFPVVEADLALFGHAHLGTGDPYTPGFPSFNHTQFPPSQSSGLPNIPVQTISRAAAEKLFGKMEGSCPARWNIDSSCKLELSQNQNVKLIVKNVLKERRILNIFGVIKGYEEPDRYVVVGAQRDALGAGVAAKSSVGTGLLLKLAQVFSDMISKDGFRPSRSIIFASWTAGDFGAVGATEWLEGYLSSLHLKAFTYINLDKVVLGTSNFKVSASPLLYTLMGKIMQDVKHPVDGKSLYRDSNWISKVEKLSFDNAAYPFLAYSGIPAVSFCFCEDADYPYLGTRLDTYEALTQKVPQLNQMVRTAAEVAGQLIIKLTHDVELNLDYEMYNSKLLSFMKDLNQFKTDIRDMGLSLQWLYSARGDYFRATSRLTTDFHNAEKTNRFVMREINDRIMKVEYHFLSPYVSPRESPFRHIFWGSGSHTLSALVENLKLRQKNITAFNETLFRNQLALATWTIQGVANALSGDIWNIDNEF
Test: BLI (Octet), IgG on Protein A sensor, muTfR-ECD-His in solution, 1:1 global fit
Reported Property: koff (s⁻¹)
Note: unit s⁻¹ is implicit; provide only the numeric part.

>  <Binder>
Ab5 (antibody, V domains shown) VH: QVQLVESGGGLVQPGRSLRLSCAASGFTFDDYAMHWVRQAPGKGLEWVSGISWNSGSIGYADSVKGRFTISRDNAKNSLYLQMNSLRAEDTALYYCAKVSSQSGSVAGFDYWGQGTLVSVSS VL: QPVLTQPPSASGTPGQRVTISCSGSSSNIGANYVYWYQQLPGTAPKLLIYRNNQRPSGVPDRFSGSKSGTSASLAIGGLRSEDEADYYCAGWDDSLSGVLFGGGTKVTVL

>  <koff [s⁻¹]>
0.000135

$$$$

Given muTfR Ab4 (antibody, V domains shown, Biotinylated when used as the probe in the competition ELISA; the sites are not stated and the letters do not carry them., also called anti-muTfR Ab4; biotinylated Ab4) VH: EVQLVESGGGLVKPGGSLRLSCAASGFTFSWYTMNWVRQAPGKGLEWVSSISSSSSDMYYADSVKGRFTISRDNAKNSLYLQIDSLRAEDTAVYYCARAHYYDSTSLNHFYGMDVWGQGTTVTVSS VL: QSVLTQPPSVSVAPGKTARITCGGNNIGSRTVHWYQQRPGQAPMLVVSDDNDRPSGIPERFSGSNSGNTATLTITRVEAGDEADYYCQVWDSSSDHLVFGGGTQLTVL , respond with its koff.
0.000391

Using known records, supply koff for Ab59 (antibody, V domains shown) VH: QVQLVESGGGVVQPGRSLRLSCAASGFTFSSYAMHWVRQAPGKGLEWVAVISYDGSNKYYADSVKGRFTISRDNSKNTLYLQMNSLRAEDTAVYYCARGGPYYDFWSDGMDVWGQGTMVTVSS VL: QSVLTQPHSVSESPGKTVTISCTRSSGSIASNYVQWYQQRPGSSPTTVIYEDNQRPSGVPDRFSGSIDSSSNSASLTISGLKTEDEADYYCQSYDSSNYVFGTGTKVTVL
0.000162

Given the binder Ab42 (antibody, V domains shown) VH: QVQLVQSGAEVKKPGSSVKVSCKASGGTFSSYAISWVRQAPGQGLEWMGGIIPIFGTANYAQKFQGRVTITADESTSTAYMELSSLRSEDTAVYYCARGATRGMDVWGQGTLVTVSS VL: DIVMTQSPSSLSASVGDRVTITCRASQSISNFLNWYQQKPGKAPKLLIYAASSLQSGVPSRFSGSRSGTDFTLTISSLQPEDFATYYCQQSSSIPLTFGGGTKLEIK , write its reported koff.
0.00013
